Provide the recorded phage ELISA signal ratio for the entries that follow.
measured-target: NXF1 203-359 LRR_1 (domain begin residue: 203, domain end residue: 359)
assay-info: phage ELISA signal ratio (GST-PRM binding over GST background); higher = stronger binding of peptide-phage to the PRM

{"binder": "FETLWARHAQGQTQVE", "phage ELISA signal ratio": 22}
{"binder": "VQMWSFEQIWVEHMMG", "phage ELISA signal ratio": 20.1}
{"binder": "PNFEDYWRTAEQWHQP", "phage ELISA signal ratio": 25.4}
{"binder": "FENYWKGYQEVPLESR", "phage ELISA signal ratio": 18.9}

Turning now to a further record.
# input Bench note: what phage ELISA signal ratio did FEELWLKHTAVSKTTE show?
# output 32.5
